Target: Dual specificity tyrosine-phosphorylation-regulated kinase 1A (Rattus norvegicus)
Assay: inhibition of rat Dyrk1A phosphotransfer – biochemical, cherry-pick, plate reader, 2124-03, dose response (AID 588449)
Settings: recombinant Dyrk1A, ADP-Glo luminescence, NFATc1 peptide
Could you please report measured AC50 for the items listed next?

I would be grateful if you could share the reported AC50 for Clc1ccccc1-c1ccc2ncnc(NCc3ccc4c(c3)OCO4)c2c1 . 3160 nM

Ok, now Fc1c(-c2ccc3ncnc(NCc4cccs4)c3c2)ccc2c1OCO2 83.2 nM

Ok, now Cc1csc(CN(C)c2ncnc3ccc(-c4ccc5c(c4)OCO5)cc23)n1 1970 nM

Ok, now Cc1ccc(CNc2ncnc3ccc(-c4ccoc4C)cc23)o1 2560 nM

Ok, now Cc1nc(CNc2ncnc3ccc(-c4ccc5c(c4)OCO5)cc23)cs1 168 nM

Ok, now Cc1ccc(CN(C)c2ncnc3ccc(-c4ccc5c(c4)OCO5)cc23)o1 10.4 nM

----------
Molecular target: Dual specificity tyrosine-phosphorylation-regulated kinase 1A (Rattus norvegicus) (UniProt Q63470)
Experiment: inhibition of rat Dyrk1A phosphotransfer – biochemical, cherry-pick, plate reader, 2124-03, dose response (AID 588449)
Conditions: recombinant Dyrk1A, ADP-Glo luminescence, NFATc1 peptide
Active and inactive are the calls of the source.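 How the source made its calls: active means inhibitors whose fitted AC50 is no more than ten times their highest valid tested dose; inconclusive means flat fit with 30 to 70% inhibition, or poor fit; inactive means the rest.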
Your answer must be one of the following: yes for active, no for inactive

# lookup: test call for Cc1nc(CNc2ncnc3ccc(-c4ccoc4)cc23)cs1 yes

Ok, now CCN(Cc1cccs1)c1ncnc2ccc(-c3ccc4c(c3)OCO4)cc12 yes

Ok, now Cc1noc(CN(C)c2ncnc3ccc(-c4ccc5c(c4)OCO5)cc23)n1 yes

Ok, now Clc1cc(Cl)cc(CNc2ncncc2-c2ccc3c(c2)OCO3)c1 yes

Ok, now CN(Cc1cccs1)c1ncnc2ccc(-c3ccc4c(c3)OCO4)cc12 yes

Ok, now Brc1ccc(CNc2nccc(-c3ccc4c(c3)OCO4)n2)cc1Br yes

Ok, now c1cncc(CNc2nccc(-c3ccc4c(c3)OCO4)n2)c1 yes

Ok, now Clc1ccc(CNc2nccc(-c3ccc4cn[nH]c4c3)n2)cc1Cl yes

Ok, now c1cncc(CNc2nccc(-c3ccc4[nH]ncc4c3)n2)c1 yes

Ok, now Cc1occc1CNc1ncnc2ccc(-c3ccc4c(c3)OCO4)cc12 yes

Ok, now Cc1c(-c2ccnc(NCc3cccnc3)n2)sc(=O)n1C yes

Ok, now COc1ccc(-c2nccc(NCc3ccc(C)cc3)n2)cc1 yes

Ok, now c1coc(CCNc2ncnc3ccc(-c4ccc5c(c4)OCO5)cc23)c1 yes

Ok, now Cc1c(-c2ccnc(NCc3ccc(Cl)cc3)n2)sc(=O)n1C yes

Ok, now Cc1ccsc1CN(C)c1ncnc2ccc(-c3ccoc3)cc12 yes

Ok, now c1nc(NCC2CCCC2)c2cc(-c3ccc4c(c3)OCO4)ccc2n1 yes

Ok, now Cc1ccsc1CNc1ncnc2ccc(-c3ccc4c(c3)OCO4)cc12 yes

Ok, now Clc1ccc(CNc2ccnc(-c3ccc4[nH]ncc4c3)n2)cc1Cl yes

Ok, now c1cncc(CNc2ccnc(-c3ccc4cn[nH]c4c3)n2)c1 yes

Ok, now Clc1ccc(CNc2nccc(-c3ccc4[nH]ncc4c3)n2)cc1Cl yes

Ok, now c1cncc(CNc2ccnc(-c3ccc4[nH]ncc4c3)n2)c1 yes

Ok, now Clc1ccc(CNc2ncncc2-c2ccc3c(c2)OCO3)cc1 yes

Ok, now Clc1ccc(CNc2nccc(-c3ccc4c(c3)OCCO4)n2)cc1Cl yes

Ok, now c1nc(NCC2CCCO2)c2cc(-c3ccc4c(c3)OCO4)ccc2n1 (stereo not given) yes

Ok, now c1cc(-c2ccc3c(c2)OCO3)nc(Nc2ccc3c(c2)OCO3)n1 yes

Ok, now Clc1ccc(Nc2nccc(-c3ccc4c(c3)OCO4)n2)cc1 yes

Ok, now c1csc(CCNc2ncnc3ccc(-c4ccc5c(c4)OCO5)cc23)c1 yes

Ok, now Cc1ccsc1CN(C)c1ncnc2ccc(-c3ccc(CO)o3)cc12 yes

Ok, now Cc1nc(CN(C)c2ncnc3ccc(-c4ccc5c(c4)OCO5)cc23)cs1 yes

Ok, now c1cncc(CNc2nccc(-c3ccc4cn[nH]c4c3)n2)c1 yes

Ok, now CCOC(=O)c1ccc(-c2ccc3ncnc(N(C)Cc4sccc4C)c3c2)o1 yes

Ok, now Clc1ccc(CNc2nccc(-c3ccc4c(c3)OCO4)n2)cc1Cl yes

Ok, now Brc1cc(Br)cc(CNc2nccc(-c3ccc4c(c3)OCO4)n2)c1 yes

Ok, now CS(=O)(=O)CCNCc1ccc(-c2ccc3ncnc(Nc4ccc(OCc5cccc(F)c5)c(Cl)c4)c3c2)o1 no

Ok, now CCCNc1ncnc2ccc(-c3ccc4c(c3)OCO4)cc12 yes

Ok, now c1csc(CNc2ncnc3ccc(-c4ccoc4)cc23)c1 yes

Ok, now FC(F)(F)c1cccc(Nc2nccc(-c3ccc4c(c3)OCO4)n2)c1 yes

Ok, now Clc1cc(Cl)cc(CNc2cc(-c3ccc4c(c3)OCO4)ncn2)c1 yes

Ok, now CN(C)c1ccc(-c2nccc(NCc3cccs3)n2)cc1 yes

Ok, now O=[N+]([O-])c1cc(Nc2nccc(-c3ccc4c(c3)OCO4)n2)cc(C(F)(F)F)c1 yes

Ok, now c1nc(NCC2CCCOC2)c2cc(-c3ccc4c(c3)OCO4)ccc2n1 (stereo not given) yes

Ok, now c1cncc(CNc2cc(-c3ccc4c(c3)OCO4)ncn2)c1 yes

Ok, now Cc1ccc(CNc2ncnc3ccc(-c4ccc5c(c4)OCO5)cc23)o1 yes

Ok, now CN(Cc1nccs1)c1ncnc2ccc(-c3ccc4c(c3)OCO4)cc12 yes

Ok, now Clc1ccc(CNc2cc(-c3ccc4c(c3)OCO4)ncn2)cc1 yes

The reported measurements were obtained from PubChem BioAssay AID588449.
